TARGET DESC: T1, human VEGF (hVEGF) (human, UniProt P15692 181-395);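 further: fab variants flowed over hVEGF immobilized on a CM5 chip, rate constants from a one-to-one Langmuir fit, Kd taken as koff over kon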
T1 construct: also called VEGF-A
T1 sequence: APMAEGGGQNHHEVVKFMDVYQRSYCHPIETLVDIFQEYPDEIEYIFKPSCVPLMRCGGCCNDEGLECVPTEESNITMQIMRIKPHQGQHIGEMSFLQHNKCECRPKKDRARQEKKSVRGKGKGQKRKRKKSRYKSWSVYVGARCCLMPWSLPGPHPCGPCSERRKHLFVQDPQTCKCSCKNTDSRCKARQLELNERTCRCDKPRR
EXPERIMENT NOTES: SPR
Hi there, I'd appreciate the recorded pKd for every entry that follows.
One number for each entry, as −log10 of the molar value.

Consider the following illustrative entries.
[[record]]
binder = "HCcombo (Fab, V domains shown, Fab) VH: EEQLVEEGGGLVQPGESLELSCAASGFEISDYWIHWVRQEPGEGLEWVAGITPAGGYEYYADSVEGRFTISADTSENTAYLQMNELRAEDTAVYYCARFVFFLPYAMDYWGQGELVTVSS VL: DIQMTQSPSSLSASVGDRVTITCRASQDVSTAVAWYQQKPGKAPKLLIYSASFLYSGVPSRFSGSGSGTDFTLTISSLQPEDFATYYCQQGYGNPFTFGQGTKVEIK"
assay_readout = "pKd"
recorded_number = 9.87

[[record]]
binder = "G6.31 LC-N94A.LC-F83A (Fab, V domains shown, Fab; also called LC-F83A, LC-N94A; LCcombo5) VH: EVQLVESGGGLVQPGGSLRLSCAASGFTISDYWIHWVRQAPGKGLEWVAGITPAGGYTYYADSVKGRFTISADTSKNTAYLQMNSLRAEDTAVYYCARFVFFLPYAMDYWGQGTLVTVSS VL: DIQMTQSPSSLSASVGDRVTITCRASQDVSTAVAWYQQKPGKAPKLLIYSASFLYSGVPSRFSGSGSGTDFTLTISSLQPEDAATYYCQQGYGAPFTFGQGTKVEIK"
assay_readout = "pKd"
recorded_number = 8.77


Now for the binder whose pKd we want.
Prompt line: Look up pKd of R19HCLC5 (Fab, V domains shown, Fab) VH: EEQLVEEGGGLVQPGESLRLSCAASGFEISDYWIHWVRQEPGEGLEWVAGITPAGGYEYYADSVEGRFTISADTSENTAYLQMNELRAEDTAVYYCARFVFFLPYAMDYWGQGELVTVSS VL: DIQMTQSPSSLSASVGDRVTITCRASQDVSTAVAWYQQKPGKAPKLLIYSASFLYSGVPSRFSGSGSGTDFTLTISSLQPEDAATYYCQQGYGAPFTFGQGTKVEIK and report it.
Response line: 10.21
